- run description: Confirmation and Secondary Assay for Modulators of Hemoglobin Beta Chain Splicing at IVS2 654 locus (AID 910);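 also: HeLa cells stably carrying EGFP split by mutant beta-globin IVS2-654 intron; per-well total GFP intensity by laser scanning cytometry after 2-day treatment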
- condition context: HeLa EGFP-654 splicing reporter, GFP fluorescence, 48 h; series mostly up to 46.1 µM
Active and inactive are the calls of the source. Calls follow the shape of the dose curve; as a rule, active = well fitted activation curve with a large enough effect; inconclusive = small, poorly fitted or top-dose-only effect; inactive = flat fitted curve, though single readings scatter.
Your answer must be one of the following: active, inactive

Observe how each entry below is paired with its result.
>  <molecule>
COC(=O)CCC(C)C1CCC2C3CC[C@H]4CC(O)CC[C@@]4(C)C3CC(O)[C@]12C (stereo not given in full)

>  <cat>
inactive

$$$$
>  <molecule>
CC(=O)OC1CC[C@@]2(C)C(CC[C@@]3(C)C2CC=C2C4CC(C)(C)CC[C@]4(C(=O)O)CC[C@@]23C)C1(C)C (stereo not given in full)

>  <cat>
inactive

$$$$
>  <molecule>
CC1(C)SC2C(NC(=O)COc3ccccc3)C(=O)N2C1C(=O)O (stereo not given)

>  <cat>
inactive

$$$$
>  <molecule>
OCC1OC(n2cnc3c(=S)nc[nH]c32)C(O)C1O (stereo not given)

>  <cat>
active

$$$$

Please find the next molecule below.
Given CC(=O)OCC1=C(C(=O)O)N2C(=O)C(NC(=O)Cc3cccs3)C2SC1 (stereo not given) , state the outcome it received in this test.
inactive

* * *

- system name: Glucocorticoid receptor (Homo sapiens) (UniProt P04150)
- Sequence (P04150 whole entry, looked up): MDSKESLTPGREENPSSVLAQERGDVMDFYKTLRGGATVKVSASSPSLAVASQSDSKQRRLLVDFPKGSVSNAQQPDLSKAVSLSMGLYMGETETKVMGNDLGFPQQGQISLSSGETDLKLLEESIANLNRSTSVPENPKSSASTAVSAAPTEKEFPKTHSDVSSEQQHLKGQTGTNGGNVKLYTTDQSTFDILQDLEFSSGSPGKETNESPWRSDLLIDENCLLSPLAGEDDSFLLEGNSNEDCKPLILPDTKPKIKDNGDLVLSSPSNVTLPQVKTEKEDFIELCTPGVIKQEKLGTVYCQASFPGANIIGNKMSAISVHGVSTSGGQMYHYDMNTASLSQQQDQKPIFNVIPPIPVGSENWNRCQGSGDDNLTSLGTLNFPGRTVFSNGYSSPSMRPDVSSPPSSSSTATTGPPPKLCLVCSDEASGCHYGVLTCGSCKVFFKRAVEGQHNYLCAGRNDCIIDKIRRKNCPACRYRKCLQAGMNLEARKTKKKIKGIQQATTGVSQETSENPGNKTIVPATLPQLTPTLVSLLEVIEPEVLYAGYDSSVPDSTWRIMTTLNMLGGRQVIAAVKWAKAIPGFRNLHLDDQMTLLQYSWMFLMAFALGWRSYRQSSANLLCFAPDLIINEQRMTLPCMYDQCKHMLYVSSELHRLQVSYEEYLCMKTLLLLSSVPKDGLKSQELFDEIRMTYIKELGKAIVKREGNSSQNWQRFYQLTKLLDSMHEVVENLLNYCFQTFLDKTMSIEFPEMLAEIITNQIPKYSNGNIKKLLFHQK
- run description: GR-GFP Redistribution (AID 450); also: potency is read from the fitted curve at half-maximal effect
- condition context: U2OS GR-GFP nuclear translocation, laser cytometry, 2 h
Calls of active or inactive are those of the source.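 How the source made its calls: active means compounds whose dose series gives a full or clear partial fitted curve of increased nuclear translocation; inconclusive means weak partial curve or effect only at the top dose; inactive means no dose-dependent translocation response.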
A collection of molecules and their measured Potency

Before answering, review these 4 worked examples.
>  <molecule>
C[C@@]12CC[C@H]3[C@@H](CCC4=CC(=O)CC[C@]43C)[C@H]1CC[C@H]2C(=O)CO

>  <system name>
Glucocorticoid receptor (Homo sapiens) (UniProt P04150)

>  <Potency>
0.0622 µM (active)

$$$$
>  <molecule>
CCN(CC)[C@@H](C)CN1c2ccccc2Sc2ccccc21

>  <system name>
Glucocorticoid receptor (Homo sapiens) (UniProt P04150)

>  <Potency>
> 20.6 µM (inactive)

$$$$
>  <molecule>
Cn1nnnc1SCC1=C(C(=O)O)N2C(=O)[C@@H](NC(=O)[C@@H](O)c3ccccc3)[C@@H]2SC1

>  <system name>
Glucocorticoid receptor (Homo sapiens) (UniProt P04150)

>  <Potency>
> 20.6 µM (inactive)

$$$$
>  <molecule>
C[C@@]12CCC(=O)C[C@@H]1CC(=O)[C@H]1[C@H]3CCC[C@]3(C)C(=O)C[C@@H]12 (tested in a mixture with another compound)

>  <system name>
Glucocorticoid receptor (Homo sapiens) (UniProt P04150)

>  <Potency>
> 20.6 µM (inactive)

$$$$

Can you look up the measured Potency of `CC[C@](C)(CN(C)C)OC(=O)c1ccccc1` for me?
> 20.6 µM (inactive)

# Potency lookup, item `Cc1noc(C)c1-c1nc(Nc2ccncc2)c2ccccc2n1`
> 46 µM (inactive)

Could you share which Potency value was measured for `CO[C@H]1[C@H](O[C@H]2O[C@@H](C)[C@@H](O[C@@H]3C[C@](C)(O)[C@H](OC(=O)CC(C)C)[C@H](C)O3)[C@@H](N(C)C)[C@@H]2O)[C@@H](CC=O)C[C@@H](C)[C@@H](O)/C=C\C=C/C[C@@H](C)OC(=O)C[C@H]1OC(C)=O` ?
> 20.6 µM (inactive)

Ref: PubChem BioAssay (NCATS)
